For each of the compounds below, state its growth inhibition.
# Experiment Summary: growth inhibitors of E. coli tolC mutant, primary screen, strain BW25113 ΔtolC::kan, 384-well (AID 573);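 note: growth measured after 20 h incubation at 37 °C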
# Assay Context: OD615, active compounds read high, screened at 10 µM (by protocol)
Out of some 65,000 compounds screened, about 1,400 (2.2%) were called active. The sample holds actives, similar compounds and a random draw of the others, so the mix is not that of the screen.

Give growth inhibition for C=CCn1c(N)c(C(=O)OCC(C)C)c2nc3ccccc3nc21
30.8% (inactive)

Give growth inhibition for C=CCn1c(N)c(S(=O)(=O)c2cccs2)c2nc3ccccc3nc21
26.6% (inactive)

Give growth inhibition for COc1cc(C2C(C(=O)c3ccc(C)o3)=C(O)C(=O)N2CCc2ccccc2)ccc1O (configuration not stated)
5.33% (inactive)

Give growth inhibition for Nc1cc(=O)nc(SCc2ccccc2)n1Cc1ccco1
7.07% (inactive)

Give growth inhibition for O=C(Nc1ccccc1)N(Cc1cccnc1)Cc1ccco1
-11.4% (inactive)

Give growth inhibition for CCOc1ccccc1NC(=O)C1CCN(S(=O)(=O)c2c(C)nn(C)c2C)CC1
-6.48% (inactive)

Give growth inhibition for CCOC(=O)C1CCc2nc3ccccc3c(=O)n21 (configuration not stated)
-18.7% (inactive)

Give growth inhibition for CCCCN(C)C(=O)C1CCN(Cc2ccccn2)CC1
-9.54% (inactive)

Give growth inhibition for COc1ccc(CCN2C(=O)c3[nH]nc(-c4ccccc4O)c3C2c2ccc(C)cc2)cc1OC (configuration not stated)
64.4% (active)

Give growth inhibition for CCOc1cc(C)c(Cl)cc1S(=O)(=O)n1nnc2ccccc21
63.4% (active)

Give growth inhibition for O=C(CSc1nnc(-c2ccco2)n1Cc1ccccc1)NC(=O)NCc1ccco1
12.2% (inactive)

Give growth inhibition for O=C(O)c1ccc(NS(=O)(=O)c2cccc3nsnc23)cc1
-25% (inactive)

Give growth inhibition for O=C(CCCCn1c(=O)[nH]c2ccccc2c1=O)NCc1ccc2c(c1)OCO2
1.02% (inactive)

Give growth inhibition for O=C(CN1CCN(c2nc(-c3ccccc3)cs2)CC1)NCc1ccc2c(c1)OCO2
50% (inactive)

Give growth inhibition for CCn1cc(C(=O)NCc2ccc3c(c2)OCO3)c2cc(OC)c(OC)cc2c1=O
-12.7% (inactive)

Give growth inhibition for Cc1nc2c(C(=O)NCc3ccc4c(c3)OCO4)c[nH]n2c(=O)c1Cc1ccccc1F
100% (active)

Give growth inhibition for Cc1ccc(SCCN2C(=O)NC(C)(C)C2=O)cc1
13.1% (inactive)

Give growth inhibition for COc1ccc(-c2csc(N3CCN(Cc4ccc5c(c4)OCO5)CC3)n2)cc1
5.4% (inactive)

Give growth inhibition for C=CCn1c(SCc2nnc(-c3ccccc3)o2)nnc1C(O)c1ccccc1 (configuration not stated)
0.17% (inactive)

Give growth inhibition for Clc1ccccc1CSc1nnc(-c2ccco2)c(-c2ccco2)n1
9.86% (inactive)

Give growth inhibition for Cc1ccccc1OCC(=O)Nc1ccc(N2CCN(C(=O)C(C)C)CC2)c(Cl)c1
42.8% (inactive)

Give growth inhibition for CC(C)Cn1c(N)c(C(=O)NCc2cccs2)c2nc3ccccc3nc21
79.5% (active)

---

For each of the molecules below, state its growth inhibition.
# Experiment Summary: growth inhibitors of E. coli tolC mutant, primary screen, strain BW25113 ΔtolC::kan, 384-well (AID 573);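 note: growth measured after 20 h incubation at 37 °C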
# Assay Context: OD615, active compounds read high, screened at 10 µM (by protocol)
Hit rate of the full screen: of about 65,000 compounds, about 1,400 (2.2%) were called active. For the sample, actives were picked, then their nearest neighbours and some compounds at random.
Numeric answer only, unit % assumed.

Give growth inhibition for CCCc1cc(=O)[nH]c(SCc2ccc(C#N)cc2)n1
14.9

Give growth inhibition for CCOc1ccc(Nc2oc(Cc3ccccc3)nc2C#N)cc1
31.9

Give growth inhibition for CCOC(=O)c1c(NC(=O)CSc2nnc(C)c(=O)[nH]2)sc2c1CCC2
66.5

Give growth inhibition for O=C(Nc1cccc(F)c1)c1ccc(S(=O)(=O)N2CCCC2)cc1
8.01

Give growth inhibition for CC1(C)Cc2ccccc2-c2nc(CN3CCOCC3)[nH]c(=O)c21
5.57

Give growth inhibition for N#Cc1nc(Cc2cccc3ccccc23)oc1NCc1ccc2c(c1)OCO2
57.4

---

# Experiment Summary: growth inhibitors of E. coli tolC mutant, primary screen, strain BW25113 ΔtolC::kan, 384-well (AID 573);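 note: growth measured after 20 h incubation at 37 °C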
# Assay Context: OD615, active compounds read high, screened at 10 µM (by protocol)
About 1,400 (2.2%) of roughly 65,000 compounds were called active. For the sample, actives were picked, then their nearest neighbours and some compounds at random.
For each of the compounds below, state its growth inhibition.
Numeric answer only, unit % assumed.

Give growth inhibition for Cn1c(=O)[nH]c(=O)c2c1nc(NCCCn1ccnc1)n2Cc1cccc(Br)c1
-18.6

Give growth inhibition for N#CCCN1CCN(S(=O)(=O)c2ccc(S(=O)(=O)NC3CCCCC3)cc2)CC1
-0.61

Give growth inhibition for COC(=O)CSC1=C(C#N)C(c2ccccc2OC)C(C(=O)OC)C(=O)N1 (stereo unspecified)
-1.55

Give growth inhibition for CC1CCCN(Cc2nc3c(c(=O)n(C)c(=O)n3C)n2CC(=O)c2ccccc2)C1 (stereo unspecified)
13.4

Give growth inhibition for CCCCCCn1c(CN2CCCCC2)nc2c1c(=O)n(C)c(=O)n2C
-3.32

Give growth inhibition for N#Cc1nc(COc2ccc(-c3ccccc3)cc2)oc1NCc1cccnc1
88.7

Give growth inhibition for COC(=O)c1sc(=S)n(-c2ccccc2)c1N
-12.6

Give growth inhibition for CCS(=O)(=O)n1nc(-c2ccccc2)nc1SCc1ccccc1
62.5

Give growth inhibition for COc1ccc(-n2c(SCC(=O)OC(C)C)nnc2-c2ccccn2)cc1
4.58

Give growth inhibition for Cc1nnc(SCC(=O)NCCOc2ccc(Cl)cc2)n1-c1ccccc1
-1.57

Give growth inhibition for Cc1cc(C)n(-c2nc(SCC(=O)N3CCCC3)c3c4c(sc3n2)CCCC4)n1
85.9

---

For each of the compounds below, state its growth inhibition.
# Experiment Summary: growth inhibitors of E. coli tolC mutant, primary screen, strain BW25113 ΔtolC::kan, 384-well (AID 573);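 note: growth measured after 20 h incubation at 37 °C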
# Assay Context: OD615, active compounds read high, screened at 10 µM (by protocol)
Out of some 65,000 compounds screened, about 1,400 (2.2%) were called active. The full list was thinned out, with actives kept by preference.
Numeric answer only, unit % assumed.

Give growth inhibition for COc1cccc(Nc2nnc(SCC(=O)N3CC(C)OC(C)C3)s2)c1 (configuration not stated)
8.6

Give growth inhibition for CCCOc1ccc2c3c(c(=O)oc2c1OCCC)CCC3
73

Give growth inhibition for Cc1cc(C)c(C#N)c(SCc2ccc3c(c2)OCO3)n1
62.3

Give growth inhibition for COc1cccc(NC(=O)Nc2nnc(N3CCCCC3C)s2)c1 (configuration not stated)
61.5

Give growth inhibition for CCCCc1nc2ccccc2c(=O)n1NC(=O)c1c(O)c2cccc3c2n(c1=O)CC3
34.2

Give growth inhibition for O=C(NCc1cccs1)C1CCN(S(=O)(=O)c2ccc3c(c2)OCCO3)CC1
-14.5

Give growth inhibition for O=c1c(-c2ccc3c(c2)OCCO3)c(C(F)(F)F)oc2cc(O)cc(O)c12
11.4

Give growth inhibition for COc1cccc(NC(=O)C2CCCN2C(=O)OCc2ccccc2)c1 (configuration not stated)
-9.18

Give growth inhibition for COc1ccc2c3c(c(=O)oc2c1OCC(=O)C(C)(C)C)CCCC3
10.7

Give growth inhibition for CCOC(=O)c1cc2cc(-c3c(C(=O)OCC)oc4cc(O)cc(O)c4c3=O)ccc2o1
87.4

Give growth inhibition for COc1cc(OC)cc(C(=O)Nc2ccc(-c3nc4ccccc4o3)c(O)c2)c1
19.7

Give growth inhibition for CCOc1ccccc1NC(=O)CCN1CCN(S(=O)(=O)c2ccc(OC)cc2)CC1
-7.02

Give growth inhibition for COC(=O)CSc1nc(C2CC2)nc2ccccc12
15.2

Give growth inhibition for CCc1nnc(NC(=O)C2CCCN2S(=O)(=O)c2ccccc2)s1 (configuration not stated)
3.73

Give growth inhibition for CCCc1nc2ccccc2c(=O)n1NC(=O)c1c(O)c2ccccc2[nH]c1=O
72.5

Give growth inhibition for CCOC(=O)c1[nH]c2ccc(OC)cc2c1NC(=O)N1CCOCC1
-1.42

Give growth inhibition for CCN=C1SC(CC(=O)Nc2ccc(C)cc2)C(=O)N1CC (configuration not stated)
-9.63

Give growth inhibition for COc1ccccc1N1CCN(C(=O)c2c(-c3c(Cl)cccc3Cl)noc2C)CC1
23.5

Give growth inhibition for CCc1nnc(NC(=O)c2ccc(S(=O)(=O)NC3CCCCC3)cc2)s1
18.5

Give growth inhibition for CCCOC(=O)c1cc2ccccc2oc1=O
-13.8

Give growth inhibition for COc1ccc(S(=O)(=O)N2CCOCC2)cc1C(=O)Nc1nc2ccccc2s1
-15.6

Give growth inhibition for O=C(Nc1ccc2c(c1)OCO2)C1CC(c2c(F)cccc2Cl)=NO1 (configuration not stated)
18

Just for reference, PubChem BioAssay AID573 is where these values come from.
